Assay Name: HEK293 cytotoxicity assay (resazurin)
Type: cell-based, human
Stated Conditions: human; HEK293 cells; positive control
Value Type: IC50 at 20 h (µg/mL)

compound="CC/C(=C(\\c1ccccc1)c1ccc(OCCN(C)C)cc1)c1ccccc1 [Tamoxifen, reference compound]" value_type="IC50 at 20 h" unit_abbreviation=µg/mL number=9

* * *

Assay Name: HEK293 cytotoxicity assay (resazurin)
Assay type: cell-based, human
Stated Conditions: human; concentration at 50% cytotoxicity on HEK293 cells; mean (n = 2)
Value Type: CC50 at 20 h (µg/mL)

molecule="COc1ccc(CCn2cncc2-c2c[nH]c3ccccc23)cc1 [Compound 23]" value_type="CC50 at 20 h" number=24.5
molecule="COc1ccc(Cn2cncc2-c2c[nH]c3cc(Br)ccc23)cc1 [Compound 17]" value_type="CC50 at 20 h" number=11.1
molecule="Clc1ccc2[nH]cc(-c3cncn3CCc3ccccc3)c2c1 [Compound 19]" value_type="CC50 at 20 h" number=17.3
molecule="Brc1ccc2[nH]cc(-c3cncn3CCc3ccccc3)c2c1 [Compound 21]" value_type="CC50 at 20 h" number=10.6
molecule="c1ccc(CCn2cncc2-c2c[nH]c3ccccc23)cc1 [Compound 1]" value_type="CC50 at 20 h" number=19.3

* * *

Documented melting point across a set of compounds
Value Type: melting point

sample_smiles=c1ccc2c(-c3cncn3CCc3ccc4c(c3)OCO4)c[nH]c2c1 value_type="melting point" result="195 to 196 °C"
sample_smiles=CCCCCn1cncc1-c1c[nH]c2cccc(Br)c12 value_type="melting point" result="207 to 208 °C"
sample_smiles=COc1ccc(-c2cncn2Cc2c[nH]c3ccccc23)cc1 value_type="melting point" result="152 to 153 °C"
sample_smiles=Fc1ccc2c(-c3cncn3CCc3ccc4c(c3)OCO4)c[nH]c2c1 value_type="melting point" result="188 to 189 °C"
sample_smiles=COc1ccc2c(-c3cncn3CCc3ccccc3)c[nH]c2c1 value_type="melting point" result="48 to 49 °C"
sample_smiles=Clc1cccc2[nH]cc(-c3cncn3CCc3ccccc3)c12 value_type="melting point" result="73 to 74 °C"
sample_smiles=Brc1cccc2[nH]cc(-c3cncn3Cc3c[nH]c4ccccc34)c12 value_type="melting point" result="201 to 202 °C"
sample_smiles=COc1ccc(CCn2cncc2-c2c[nH]c3cc(Cl)ccc23)cc1 value_type="melting point" result="165 to 166 °C"
sample_smiles=c1ccc(Cn2cncc2-c2ccccc2)cc1 value_type="melting point" result="99 to 100 °C"

* * *

Documented melting point across a set of compounds
Value Type: melting point

sample_smiles=Brc1cccc2[nH]cc(-c3cncn3CCc3ccccc3)c12 result="204 to 205 °C"
sample_smiles=COc1ccc(CCn2cncc2-c2c[nH]c3cc(Br)ccc23)cc1 result="184 to 185 °C"
sample_smiles=Brc1cccc2[nH]cc(-c3cncn3CCc3c[nH]c4ccccc34)c12 result="> 230 °C"
sample_smiles=Clc1ccc2[nH]cc(-c3cncn3CCc3c[nH]c4ccccc34)c2c1 result="70 to 71 °C"
sample_smiles=COc1ccc(CCn2cncc2-c2c[nH]c3cccc(Br)c23)cc1 result="83 to 84 °C"
sample_smiles=Clc1ccc2[nH]cc(-c3cncn3CCc3ccc4c(c3)OCO4)c2c1 result="> 200 °C"
sample_smiles=COc1ccc(Cn2cncc2-c2c[nH]c3cccc(Br)c23)cc1 result="92 to 93 °C"
sample_smiles=Clc1cccc2c(-c3cncn3Cc3ccccc3)c[nH]c12 result="179 to 180 °C"
sample_smiles=COc1ccc(Cn2cncc2-c2c[nH]c3cccc(F)c23)cc1 result="66 to 67 °C"
